Cited source: patent US11279735B2

# Test system: Escherichia coli (E. coli) strain CFT073 ATCC 700928
# Format: cell-based
# COND: ATCC 700928, 22 h
*1 amine or outer side, *2 acyl side, *3 side chain or, on linkers, in order; H or OH if unused. Where a SMILES comes first, the peptide text is derived from it. [ ]: non-standard residue; d: D form. The star is where a group is joined. X2 = CCCCCC[C@@H](OC[C@@H](C)N[*:1])[C@@H](C)C(=O)[*:2]; Gly(cHept) = N[C@H](C(=O)O)C1CCCCCC1; NMeNva = CCC[C@H](NC)C(=O)O; X8 = NC[C@H]1C[C@H](*)C1; Dap = NC[C@H](N)C(=O)O
Hi! Could you tag entries with MIC below 6 µM as True, and those at or above as False? Much appreciated.

[[record]]
compound = "CCCCCCCCCC[C@H]1OC(=O)CNC(=O)[C@H]([C@H](C)O)NC(=O)[C@H](CN)NC(=O)[C@H]([C@H](C)CC)NC(=O)[C@H](CC2CCC2)N(C)C(=O)[C@@H]1C"
tested_system = "Escherichia coli (E. coli) strain CFT073 ATCC 700928"
class = "False"

[[record]]
compound = "CCCCCCCCCC[C@H]1OC(=O)CNC(=O)[C@H]([C@H](C)O)NC(=O)[C@H](CO)NC(=O)[C@H]([C@@H](C)CC)NC(=O)[C@H](CCC)N(C)C(=O)[C@@H]1C"
tested_system = "Escherichia coli (E. coli) strain CFT073 ATCC 700928"
class = "False"

[[record]]
compound = "CCCCCCCCCC[C@H]1OC(=O)CNC(=O)[C@H](CO)NC(=O)[C@H](CO)NC(=O)[C@H]([C@@H](C)CC)NC(=O)[C@H](CCC)N(C)C(=O)[C@@H]1C"
tested_system = "Escherichia coli (E. coli) strain CFT073 ATCC 700928"
class = "False"

[[record]]
compound = "CCCCCC[C@H]1OC[C@@H](C)NC(=O)[C@H](CO[C@H]2C[C@H](CN)C2)NC(=O)[C@H](CN)NC(=O)[C@H](C2CCCCCC2)NC(=O)[C@H](CCC)N(C)C(=O)[C@@H]1C [Example 168] (cyclo([Dap]S(X8)[X2][NMeNva][Gly(cHept)]))"
tested_system = "Escherichia coli (E. coli) strain CFT073 ATCC 700928"
class = "True"

[[record]]
compound = "CCCCCC[C@H]1OC(=O)CNC(=O)[C@H]([C@H](C)O)NC(=O)[C@H](CN)NC(=O)[C@H](C2CCCCCC2)NC(=O)[C@H](CC(C)C)N(C)C(=O)[C@@H]1C"
tested_system = "Escherichia coli (E. coli) strain CFT073 ATCC 700928"
class = "True"


###

# Test system: Escherichia coli (E. coli) strain CFT073 ATCC 700928
# Format: cell-based
# COND: ATCC 700928, 22 h
*1 amine or outer side, *2 acyl side, *3 side chain or, on linkers, in order; H or OH if unused. Where a SMILES comes first, the peptide text is derived from it. [ ]: non-standard residue; d: D form. The star is where a group is joined. X13 = C[C@H](CO[C@H](CC1CC2(CCC2)C1)[C@@H](C)C(=O)[*:2])N[*:1]; X2 = CCCCCC[C@@H](OC[C@@H](C)N[*:1])[C@@H](C)C(=O)[*:2]; Cyclobutyl(trans-3-NH2) = N[C@H]1C[C@H](*)C1; Gly(cHept) = N[C@H](C(=O)O)C1CCCCCC1; aThr = C[C@H](O)[C@H](N)C(=O)O; Chg = N[C@H](C(=O)O)C1CCCCC1; NMeNva = CCC[C@H](NC)C(=O)O; Dap = NC[C@H](N)C(=O)O
PARAMETER: MIC

[[record]]
compound = "CCCCCC[C@H]1OC[C@@H](C)NC(=O)[C@H]([C@H](C)O)NC(=O)[C@H](CN)NC(=O)[C@H](C2CCCCC2)NC(=O)[C@H](CCC)N(C)C(=O)[C@@H]1C [Example 127] (cyclo([Chg][Dap][aThr][X2][NMeNva]))"
measured_result = "4.4 µM"

[[record]]
compound = "CC(C)C[C@H]1C(=O)N[C@@H](C2CCCCC2)C(=O)N[C@@H](CN)C(=O)N[C@@H](COCCCN)C(=O)NCC(=O)O[C@H](CCCCC(C)(C)C)[C@@H](C)C(=O)N1C"
measured_result = "3.1 µM"

[[record]]
compound = "CCCCCC[C@H]1OC(=O)CNC(=O)[C@H]([C@H](C)O)NC(=O)[C@H](CN)NC(=O)[C@H](C2CCCCC2)NC(=O)[C@H](CC(C)C)N(C)C(=O)[C@@H]1Cc1ccc(C(F)(F)F)cc1"
measured_result = "6.3 µM"

[[record]]
compound = "CCCCCC[C@H]1OC(=O)CNC(=O)[C@H](CNC(=O)CN)NC(=O)[C@H](CN)NC(=O)[C@H](C2CCCCC2)NC(=O)[C@H](CC(C)C)N(C)C(=O)[C@@H]1C"
measured_result = "18 µM"

[[record]]
compound = "CCC[C@H]1C(=O)N[C@@H](C2CCCCCC2)C(=O)N[C@@H](CN)C(=O)N[C@@H](CO[C@H]2C[C@H](N)C2)C(=O)N[C@H](C)CO[C@H](CC2CC3(CCC3)C2)[C@@H](C)C(=O)N1C [Example 164] (cyclo([Dap]S(Cyclobutyl(trans-3-NH2))[X13][NMeNva][Gly(cHept)]))"
measured_result = "2.2 µM"

